Task for the reader: assign each of the following molecules its reported half-life at 10 µM.
assay: Half life in human liver microsomes at 10 uM by LC/MS analysis; assay type: ADME

# molecule "O=c1c(-c2ccc(Cl)cc2)c2ccccn2c(=O)n1CCCCN1CC=C(c2c[nH]c3ccc(F)cc23)CC1" ; its half-life at 10 µM = 1 h

half-life at 10 µM for "O=c1c(-c2ccccc2)c2ccccn2c(=O)n1CCCCN1CC=C(c2c[nH]c3ccc(Br)cc23)CC1" is 1.37 h

Field half-life at 10 µM (entry "Cc1ccccc1-c1c(=O)n(CCCCN2CC=C(c3c[nH]c4ccc(F)cc34)CC2)c(=O)n2ccccc12" ) reads 1.26 h

// half-life at 10 µM lookup, molecule = "COc1ccccc1-c1c(=O)n(CCCCN2CC=C(c3c[nH]c4ccc(F)cc34)CC2)c(=O)n2ccccc12" , result: 1.57 h

---

test: Half life in human liver microsomes at 10 uM by LC/MS analysis; assay type: ADME
Would you kindly list half-life at 10 µM for each of these compounds?
Only the number, expressed in h, is required.

Entry under test: "O=c1c(-c2ccccc2)c2ccccn2c(=O)n1CCCCN1CC=C(c2c[nH]c3ccc(F)cc23)CC1" . Its half-life at 10 µM was 1.37

Reported half-life at 10 µM of "O=c1c(-c2ccc(F)cc2)c2ccccn2c(=O)n1CCCCN1CC=C(c2c[nH]c3ccc(Br)cc23)CC1" : 1.03

The compound listed as "COc1ccccc1-c1c(=O)n(CCCCN2CC=C(c3c[nH]c4ccc(Cl)cc34)CC2)c(=O)n2ccccc12" has a reported half-life at 10 µM of 1.13

Per the record, "Cc1ccc(-c2c(=O)n(CCCCN3CC=C(c4c[nH]c5ccc(Cl)cc45)CC3)c(=O)n3ccccc23)cc1" has half-life at 10 µM of 1.41

---

molecular target: 5-hydroxytryptamine receptor 1A (Rattus norvegicus, UniProt P19327)
Sequence (P19327 whole entry): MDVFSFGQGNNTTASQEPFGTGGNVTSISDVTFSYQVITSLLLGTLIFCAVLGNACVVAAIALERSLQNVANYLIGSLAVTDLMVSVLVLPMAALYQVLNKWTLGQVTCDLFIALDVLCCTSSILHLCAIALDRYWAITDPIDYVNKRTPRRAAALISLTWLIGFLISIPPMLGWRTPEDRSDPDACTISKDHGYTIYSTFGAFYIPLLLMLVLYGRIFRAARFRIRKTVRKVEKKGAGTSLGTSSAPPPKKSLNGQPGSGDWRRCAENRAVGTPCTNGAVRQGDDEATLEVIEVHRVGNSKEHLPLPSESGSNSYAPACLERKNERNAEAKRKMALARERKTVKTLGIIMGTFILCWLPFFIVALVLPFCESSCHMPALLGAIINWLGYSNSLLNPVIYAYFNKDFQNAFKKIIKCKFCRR
Provide the reported Ki of each item.
Give the value in nM but do not write nM after it.

The reported value for "O=c1c(-c2ccc(F)cc2)c2ccccn2c(=O)n1CCCCN1CC=C(c2c[nH]c3ccc(Br)cc23)CC1" in terms of Ki is 79.1

Per the record, "COc1ccccc1-c1c(=O)n(CCCCN2CC=C(c3c[nH]c4ccc(F)cc34)CC2)c(=O)n2ccccc12" has Ki of 251

# molecule "O=c1c(-c2ccccc2F)c2ccccn2c(=O)n1CCCCN1CCC(c2c[nH]c3ccc(F)cc23)CC1" ; its Ki = 9.2

// recorded Ki for "COc1ccccc1-c1c(=O)n(CCCCN2CC=C(c3c[nH]c4ccc(Cl)cc34)CC2)c(=O)n2ccccc12" : 97.8

---

biological target: Sodium-dependent serotonin transporter (Rattus norvegicus)
Sequence (P31652 whole entry): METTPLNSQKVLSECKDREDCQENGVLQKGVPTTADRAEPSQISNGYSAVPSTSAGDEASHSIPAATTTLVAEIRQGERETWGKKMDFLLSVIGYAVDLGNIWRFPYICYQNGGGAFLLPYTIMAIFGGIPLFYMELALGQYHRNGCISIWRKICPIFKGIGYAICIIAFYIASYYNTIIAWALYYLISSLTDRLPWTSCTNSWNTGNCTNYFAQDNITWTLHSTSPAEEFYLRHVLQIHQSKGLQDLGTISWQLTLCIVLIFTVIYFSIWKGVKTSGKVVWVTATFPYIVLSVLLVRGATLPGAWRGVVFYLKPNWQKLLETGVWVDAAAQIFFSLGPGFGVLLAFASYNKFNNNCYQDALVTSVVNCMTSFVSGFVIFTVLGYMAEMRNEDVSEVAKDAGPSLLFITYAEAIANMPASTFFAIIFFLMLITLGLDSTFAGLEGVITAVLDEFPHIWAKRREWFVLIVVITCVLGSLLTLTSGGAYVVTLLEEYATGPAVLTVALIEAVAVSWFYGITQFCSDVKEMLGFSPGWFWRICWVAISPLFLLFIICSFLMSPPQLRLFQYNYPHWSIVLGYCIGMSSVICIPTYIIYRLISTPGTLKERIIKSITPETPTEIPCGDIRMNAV
Would you mind telling me the reported Ki of each entry?
Output spec: scalar in µM, unitless text.

Entry "O=c1c(-c2ccc(Cl)cc2)c2ccccn2c(=O)n1CCCCN1CCC(c2c[nH]c3ccc(F)cc23)CC1" ; Ki = 0.0255

For "O=c1c(-c2ccccc2F)c2ccccn2c(=O)n1CCCCN1CC=C(c2c[nH]c3ccc(Cl)cc23)CC1" the molecule record lists Ki as 0.435

Just so you know, measured Ki for "COc1ccc(-c2c(=O)n(CCCCN3CC=C(c4c[nH]c5ccc(Cl)cc45)CC3)c(=O)n3ccccc23)cc1" came out at 0.312

Record "O=c1c(-c2ccc(F)cc2)c2ccccn2c(=O)n1CCCCN1CC=C(c2c[nH]c3ccc(Br)cc23)CC1" . Reported Ki: 0.404

---

For reference, pKi measured on 5-hydroxytryptamine receptor 1A (Rattus norvegicus, UniProt P19327):
Keep it numeric: pKi is minus log10 of the concentration in mol/L.

GET /values?item= "COc1ccc(-c2c(=O)n(CCCCN3CC=C(c4c[nH]c5ccc(Cl)cc45)CC3)c(=O)n3ccccc23)cc1" &system= 5-hydroxytryptamine receptor 1A (Rattus norvegicus, UniProt P19327) returns pKi: 6.56

The observed pKi for "O=c1c(-c2ccccc2Cl)c2ccccn2c(=O)n1CCCCN1CC=C(c2c[nH]c3ccc(Cl)cc23)CC1" when tested with 5-hydroxytryptamine receptor 1A (Rattus norvegicus, UniProt P19327) stands at 7.13

5-hydroxytryptamine receptor 1A (Rattus norvegicus, UniProt P19327) assay, compound "O=c1c(-c2ccccc2)c2ccccn2c(=O)n1CCCCN1CC=C(c2c[nH]c3ccc(F)cc23)CC1" , recorded pKi = 6.93

The compound "O=c1c(-c2ccccc2Cl)c2ccccn2c(=O)n1CCCCN1CC=C(c2c[nH]c3ccc(F)cc23)CC1" on 5-hydroxytryptamine receptor 1A (Rattus norvegicus, UniProt P19327): pKi was 6.90
